Cited source: the supplement of paper PMC5908809

- System: normal primary NK cells, pool 1 (3 donors) (IL-2 2.5 ng/mL);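 also: normalised to DMSO-only wells as negative and benzethonium chloride as positive control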
- assayInfo: percent inhibition of viability; higher = more inhibition
- testConditions: 72 h; 100 nM
percent inhibition of viability values, listed per item
The figure you give is taken to be in %; do not add the unit.

molecule	studyTarget	outputUnit	percent inhibition of viability
CC[C@H](C)C(=O)O[C@H]1C[C@@H](C)C=C2C=C[C@H](C)[C@H](CC[C@@H]3C[C@@H](O)CC(=O)O3)[C@H]21 [Lovastatin] (max concentration tested 10000 nM)	normal primary NK cells, pool 1 (3 donors) (IL-2 2.5 ng/mL)	%	-5.92
C[C@@H](C(=O)O)c1ccc(-c2ccccc2)c(F)c1 [Tarenflurbil] (max concentration tested 10000 nM)	normal primary NK cells, pool 1 (3 donors) (IL-2 2.5 ng/mL)	%	9.24
Nc1nc(OCc2cc(Br)cs2)c2[nH]cnc2n1 [Lomeguatrib] (max concentration tested 10000 nM)	normal primary NK cells, pool 1 (3 donors) (IL-2 2.5 ng/mL)	%	9.83
Oc1nc(-c2ccc(C(F)(F)F)cc2)nc2c1CSCC2 [XAV-939] (max concentration tested 10000 nM)	normal primary NK cells, pool 1 (3 donors) (IL-2 2.5 ng/mL)	%	-0.78
Cc1cc2c(F)c(Oc3ncnn4cc(OC[C@@H](C)O)c(C)c34)ccc2[nH]1 [Brivanib] (max concentration tested 1000 nM)	normal primary NK cells, pool 1 (3 donors) (IL-2 2.5 ng/mL)	%	-3.63

Problem: Given COC(=O)N[C@@H](C)CNc1nccc(-c2cn(C(C)C)nc2-c2cc(Cl)cc(NS(C)(=O)=O)c2F)n1 [Encorafenib] (max concentration tested 1000 nM) , state its recorded percent inhibition of viability.
Solution: -18.4

====

The compounds listed here are annotated with their percent inhibition of viability.
- Tested on: normal primary NK cells, pool 1 (3 donors) (IL-2 2.5 ng/mL);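 also: normalised to DMSO-only wells as negative and benzethonium chloride as positive control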
- assayInfo: percent inhibition of viability; higher = more inhibition
- testConditions: 72 h; 1000 nM
Give the value, in units of %, as a plain number.

Known results for compounds:
compound	studyTarget	outputUnit	measuredValue
CCc1cnn2c(NCc3ccc[n+]([O-])c3)cc(N3CCCC[C@H]3CCO)nc12 [Dinaciclib] (max concentration tested 1000 nM)	normal primary NK cells, pool 1 (3 donors) (IL-2 2.5 ng/mL)	%	98.7
CN(N=O)C(=O)N[C@@H](C=O)[C@@H](O)[C@H](O)[C@H](O)CO [Streptozocin] (max concentration tested 10000 nM)	normal primary NK cells, pool 1 (3 donors) (IL-2 2.5 ng/mL)	%	-9.47
CN(C)CCN1C(=O)c2cccc3cc(N)cc(c23)C1=O [Amonafide] (max concentration tested 10000 nM)	normal primary NK cells, pool 1 (3 donors) (IL-2 2.5 ng/mL)	%	-6.27
CC(C)[C@H](C(=O)Nc1ccc(C(=O)NO)cc1)c1ccccc1 [AR-42] (max concentration tested 10000 nM)	normal primary NK cells, pool 1 (3 donors) (IL-2 2.5 ng/mL)	%	85.7
C=CCN(/C=C1/C(=O)O[C@H](COC)[C@@]2(C)C1=C(O)C(=O)C1=C2[C@H](OC(C)=O)C[C@]2(C)C(=O)CC[C@@H]12)CC=C [Sonolisib] (max concentration tested 10000 nM)	normal primary NK cells, pool 1 (3 donors) (IL-2 2.5 ng/mL)	%	23.3
Cn1cc(C2=C(c3cn(C4CCN(Cc5ccccn5)CC4)c4ccccc34)C(=O)NC2=O)c2ccccc21 [Enzastaurin] (max concentration tested 10000 nM)	normal primary NK cells, pool 1 (3 donors) (IL-2 2.5 ng/mL)	%	-14.6
CCN(CC)CCNC(=O)c1c(C)[nH]c(/C=C2\C(=O)Nc3ccc(F)cc32)c1C [Sunitinib] (max concentration tested 1000 nM)	normal primary NK cells, pool 1 (3 donors) (IL-2 2.5 ng/mL)	%	11.7
CCCc1cc(C)[nH]c(=O)c1CNC(=O)c1cc(-c2ccnc(N3CCN(C)CC3)c2)cc2c1cnn2C(C)C [GSK343] (max concentration tested 10000 nM)	normal primary NK cells, pool 1 (3 donors) (IL-2 2.5 ng/mL)	%	7.91

# next compound below
Problem: Need percent inhibition of viability, item Oc1nc(-c2ccc(C(F)(F)F)cc2)nc2c1CSCC2 [XAV-939] (max concentration tested 10000 nM)
Solution: 0.58

====

- Test system: NK-92 (IL-2 2.5 ng/mL)
- assayInfo: drug sensitivity score (DSS) (DSS units); higher = more sensitive; extreme values may be limits of the assay
- testConditions: 72 h
As shown below, each of these molecules has a reported drug sensitivity score value.
The response must contain the number and no unit.

Study these solved cases before continuing.
>>> df
                                   molecule             studytarget  measuredvalue
0  Oc1nc(-c2ccc(C(F)(F)F)cc2)nc2c1CSCC2 [XAV-939] (max concentration tested 10000 nM)  NK-92 (IL-2 2.5 ng/mL)           5.52
1  O=C(O)CC[C@H]1CC[C@@](c2cc(F)ccc2F)(S(=O)(=O)c2ccc(Cl)cc2)CC1 [MK-0752] (max concentration tested 1000 nM)  NK-92 (IL-2 2.5 ng/mL)              0
2  Nc1ccccc1NC(=O)c1ccc(CNc2nccc(-c3cccnc3)n2)cc1 [Mocetinostat] (max concentration tested 10000 nM)  NK-92 (IL-2 2.5 ng/mL)           19.3
3  O=S(=O)(c1cccc2cnccc12)N1CCCNCC1 [Fasudil] (max concentration tested 50000 nM)  NK-92 (IL-2 2.5 ng/mL)           5.03
4  COc1ccc(Cl)c(Nc2nc3ccccc3nc2NS(=O)(=O)c2cccc(NC(=O)C(C)(C)N)c2)c1 [Pilaralisib] (max concentration tested 2500 nM)  NK-92 (IL-2 2.5 ng/mL)           6.61

Problem: drug sensitivity score lookup needed for O=C(CCCCCCC(=O)Nc1ccccc1)NO [Vorinostat] (max concentration tested 10000 nM) , thanks.
Solution: 15.4

Problem: drug sensitivity score lookup needed for C[C@H](Nc1ncnc2nc[nH]c12)c1cc2cccc(Cl)c2c(=O)n1-c1ccccc1 [Duvelisib] (max concentration tested 500 nM) , thanks.
Solution: 7.08

Problem: Give its drug sensitivity score value. Item: C=C(c1ccc(C(=O)O)cc1)c1cc2c(cc1C)C(C)(C)CCC2(C)C [Bexarotene] (max concentration tested 10000 nM)
Solution: 9.12

====

- Test system: normal primary NK cells, pool 1 (3 donors) (IL-2 2.5 ng/mL);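 also: normalised to DMSO-only wells as negative and benzethonium chloride as positive control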
- assayInfo: percent inhibition of viability; higher = more inhibition
- testConditions: 72 h; 1 nM
observationType: percent inhibition of viability (%)
Your answer is read as %, so omit the unit and give the number.

Known percent inhibition of viability results, listed for orientation:
compound	observationType	measuredValue
CCCCCCCCc1ccc(CCC(N)(CO)CO)cc1 [Fingolimod] (max concentration tested 10000 nM)	percent inhibition of viability	-0.71
CN[C@@H](C)C(=O)N[C@H]1CN(C(=O)CC(C)C)CC[C@H]2CC[C@@H](C(=O)NC(c3ccccc3)c3ccccc3)N2C1=O [AT-406] (max concentration tested 10000 nM)	percent inhibition of viability	-7.15
Cc1ccc(Nc2nccc(N(C)c3ccc4c(C)n(C)nc4c3)n2)cc1S(N)(=O)=O [Pazopanib] (max concentration tested 10000 nM)	percent inhibition of viability	-5.94

Problem: Request the reported percent inhibition of viability associated with N#Cc1ccc2[nH]c(O)c(-c3ccc(CN4CCOCC4)cn3)c2c1 [AZD-1080] (max concentration tested 10000 nM)
Solution: -13.1

Problem: Value lookup for percent inhibition of viability; key = Nc1nc(OCc2cc(Br)cs2)c2[nH]cnc2n1 [Lomeguatrib] (max concentration tested 10000 nM)
Solution: -4.41

Problem: What percent inhibition of viability value was documented for this compound, NC(=S)N/N=C/c1ncccc1N [Triapine] (max concentration tested 10000 nM) ?
Solution: -6.36

Problem: Which percent inhibition of viability is reported for this compound? NC1(c2ccc(-c3nc4ccn5c(=O)[nH]nc5c4cc3-c3ccccc3)cc2)CCC1 [MK-2206] (max concentration tested 1000 nM)
Solution: -7.29

Problem: For CCN(CC)CCNC(=O)c1c(C)[nH]c(/C=C2\C(=O)Nc3ccc(F)cc32)c1C [Sunitinib] (max concentration tested 1000 nM) , what is its reported percent inhibition of viability?
Solution: -5.49

Problem: Given Cc1cccc(-c2nn3c(c2-c2ccnc4ccc(C(N)=O)cc24)CCC3)n1 [Galunisertib] (max concentration tested 1000 nM) , state its recorded percent inhibition of viability.
Solution: -7.01

Problem: Tell me the measured percent inhibition of viability of Cn1c(=O)n(-c2ccc(C(C)(C)C#N)cc2)c2c3cc(-c4cnc5ccccc5c4)ccc3ncc21 [Dactolisib] (max concentration tested 1000 nM) , please.
Solution: 16

Problem: Dear colleague, I am looking for the recorded percent inhibition of viability of the following compound: CC/C(=C(\c1ccc(O)cc1)c1ccc(OCCN(C)C)cc1)c1ccccc1 [4-hydroxytamoxifen] (max concentration tested 10000 nM)
Solution: -13
